Biological target: AF9 YEATS domain (Homo sapiens, UniProt P42568)
Construct: DNA fragment encoding AF9 YEATS domain (residues 1–138) was amplified and cloned into the pET28a vector; made in house; host or cells: Escherichia coli BL21 (DE3)
Sequence (P42568 1-138): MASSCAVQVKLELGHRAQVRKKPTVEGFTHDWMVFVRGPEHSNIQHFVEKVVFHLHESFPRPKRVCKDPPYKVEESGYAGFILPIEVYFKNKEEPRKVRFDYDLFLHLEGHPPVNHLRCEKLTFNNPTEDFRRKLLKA
Experiment: NMR chemical shift perturbation titration of 15N-labeled AF9 YEATS domain
Assay type: binding
Settings: ligand efficiency, Table 1
LE vs 0.3: less than gives Yes; not less than gives No.

Please review the entries below; each comes with its answer.
COCC(=O)Nc1ccc(C)c(N)c1 [Compound 1]	No
COCC(=O)Nc1ccc(N)cc1Cl [Compound 3]	No
CNCC(=O)Nc1ccc(CNC(C)=O)cc1 [Compound 9]	Yes
COCC(=O)Nc1ccc(Cl)c(N)c1 [Compound 2]	No
CNC(=O)Cc1ccc(NC(=O)COC)cc1 [Compound 7]	Yes
COCC(=O)Nc1ccc(Cl)c(O)c1 [Compound 6]	No
O=C(COc1ccccc1)Nc1ccc(Cl)cc1 [Compound 11]	No
COCC(=O)Nc1ccc(Cl)cc1 [Compound 5]	No

query: LE under 0.3? Item: O=C(COCc1ccc(F)cc1)Nc1ccc(Cl)cc1 [Compound 12]
result: Yes

query: Now the same for O=C(COCc1ccccc1O)Nc1ccc(Cl)cc1 [Compound 13]
result: Yes

query: Now the same for COCC(=O)Nc1ccc(N)cc1C [Compound 4]
result: No

// provenance: paper PMC8998803
